EXPERIMENTAL TARGET: Torsin-1A (Homo sapiens)
ASSAY DETAILS: small-molecule binders of mutant TOR1A in lysate, primary screen, cell lysate, small-molecule microarray, COS7 lysate, 635/667 nm fluorescence (AID 1150);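 also: score pools 667 nm emission and signal to noise measuring lysate protein binding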
APPLIED CONDITIONS: COS7 hTOR1A mutant lysate, 635 nm fluorescence, higher = more signal
MEASURED ATTRIBUTE: composite z-score
Could you respond with only the numeric value?

# count of solved cases: 3
>>> numeric_readout("C=C[C@@H](COC(=O)OC(C)(C)C)N(Cc1ccc(OC)cc1)S(=O)(=O)c1ccc(Br)cc1")
0.299
>>> numeric_readout("CN(C)C(=O)[C@@]1(CCS(=O)(=O)c2ccccc2)COC(c2ccc(OCCCO)cc2)=N1")
2.51
>>> numeric_readout("CO[C@H]1O[C@H](CO)[C@@H](OC(=O)Nc2ccccc2)[C@H](OC(=O)Nc2ccccc2)[C@@H]1OC(=O)Nc1ccccc1")
0.872

Which composite z-score is listed for COc1cc(NN2C(C(O)c3ccco3)C=CC3C(=O)N(c4ccccc4)C(=O)C32)cc(OC)c1OC (configuration not stated) ?
0.594

Which composite z-score value is on record for COc1ccc(CCNC(=O)[C@@]2(Sc3ccc(C)cc3)CC(=O)N(C3Cc4ccccc4C3)[C@@H]2c2ccc(CO)cc2I)cc1 ?
0.0598

Fill in: composite z-score of COCCOC(=O)N1C(=O)[C@@]2(c3cc(C#CC4(O)CCCCCC4)ccc31)[C@H](c1ccc(OCCO)cc1)N1[C@H](c3ccccc3)[C@H](c3ccccc3)OC(=O)[C@H]1[C@@H]2C(=O)N1CCN(c2ncccn2)CC1 is ___
0.629

Tell me the measured composite z-score of COc1ccc(-c2cc3c(c(-c4ccc(Oc5ccccc5)cc4)n2)[Si](C(C)C)(C(C)C)OC3)cn1 , please.
-0.336

---

// reported composite z-score for each item listed
EXPERIMENTAL TARGET: Dihydroorotate dehydrogenase (quinone), mitochondrial (Plasmodium falciparum (isolate 3D7)) (UniProt Q08210)
Sequence (Q08210 whole entry, looked up): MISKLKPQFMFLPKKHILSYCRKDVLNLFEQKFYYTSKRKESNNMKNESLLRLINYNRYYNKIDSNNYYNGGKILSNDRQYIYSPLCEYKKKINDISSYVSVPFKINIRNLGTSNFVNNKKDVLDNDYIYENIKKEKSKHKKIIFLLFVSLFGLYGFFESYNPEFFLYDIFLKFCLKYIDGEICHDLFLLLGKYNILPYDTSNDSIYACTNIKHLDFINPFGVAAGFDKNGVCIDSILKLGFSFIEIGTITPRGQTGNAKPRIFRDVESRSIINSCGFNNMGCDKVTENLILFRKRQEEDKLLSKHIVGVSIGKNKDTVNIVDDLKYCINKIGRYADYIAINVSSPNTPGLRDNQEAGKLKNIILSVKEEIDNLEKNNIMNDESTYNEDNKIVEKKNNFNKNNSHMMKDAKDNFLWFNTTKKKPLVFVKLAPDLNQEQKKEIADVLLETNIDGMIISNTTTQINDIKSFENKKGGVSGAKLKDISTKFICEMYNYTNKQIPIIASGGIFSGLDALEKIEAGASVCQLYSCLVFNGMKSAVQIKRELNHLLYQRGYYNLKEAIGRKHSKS
ASSAY DETAILS: PfDHODH enzyme inhibitors, primary screen, biochemical, C-terminal His tag, absorbance 600 nm (AID 1175);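 also: recombinant parasite enzyme with a five histidine tag at its C terminus; test concentration not given here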
APPLIED CONDITIONS: DCIP absorbance 600 nm, higher = more signal, called active from +8 up or from −8 down
A bare number is all that is needed in reply.

Previously resolved entries follow.
>>> numeric_readout("CCCC[C@H]1OB(O)C[C@H]2C1=C(COC)Cn1c(=O)n(-c3ccccc3)c(=O)n12")
-0.485
>>> numeric_readout("CCOC(=O)C[C@H]1[C@H](OC(=O)c2cc3ccccc3oc2=O)[C@@H](NC(=O)c2ccccc2)c2cc(OCCCO)ccc2N1C(=O)c1ccc2ccccc2n1")
0.542
>>> numeric_readout("COCCOC(=O)N1C(=O)[C@@]2(c3cc(C#CCC(C(=O)OC)C(=O)OC)ccc31)[C@H](c1ccccc1OCCO)N1[C@H](c3ccccc3)[C@H](c3ccccc3)OC(=O)[C@H]1[C@@H]2C(=O)NC[C@H](O)c1ccccc1")
-0.398

Could you now consider this next compound?
Tell me the measured composite z-score of [N-]=[N+]=Nc1ccccc1[C@H]1OC(c2ccc(OCCCO)cc2)=N[C@@]1(CCS(=O)(=O)c1ccccc1)C(=O)NCC(O)CO (some centres undefined) , please.
1.01
